Biological target: Cathepsin B (Bos taurus) (UniProt P07688)
Assay: Percent of original compound remaining with cathepsin B after incubation for 4 hrs was determined by HPLC
Starred links: 1 amine or outer side, 2 acyl side, 3 side chain; linkers in the order of their positions; H or OH if unused. Non-standard residues stand in square brackets, D forms with d. Residues, ends and D or L forms follow the SMILES beside them. Haic = O=C1[C@@H](N[*:1])CCc2cccc3c2N1[C@H](C(=O)[*:2])C3; Cha = N[C@@H](CC1CCCCC1)C(=O)O; NMeL = CN[C@@H](CC(C)C)C(=O)O; NMeA = CN[C@@H](C)C(=O)O
measured_quantity: % remaining (%)

compound	% remaining / %
CSCC[C@H](NC(=O)[C@H](C)N(C)C(=O)[C@H](CCCN=C(N)N)NC(=O)[C@H](CC1CCCCC1)NC(C)=O)C(=O)N(C)[C@@H](C)C(=O)N[C@@H](CO)C(=O)N(C)[C@@H](CC(C)C)C(N)=O (Ac-[Cha]R[NMeA]M[NMeA]S[NMeL]-NH2)	99

(1) CC(=O)N[C@@H](CC1CCCCC1)C(=O)N[C@@H](CCCN=C(N)N)C(=O)N(C)[C@@H](C)C(=O)N[C@H]1CCc2cccc3c2N(C1=O)[C@H](C(=O)N[C@@H](CO)C(=O)N(C)[C@@H](CC(C)C)C(N)=O)C3 (Ac-[Cha]R[NMeA][Haic]S[NMeL]-NH2)
(2) CSCC[C@H](NC(=O)[C@H](C)NC(=O)[C@H](CCCN=C(N)N)NC(=O)[C@H](CC1CCCCC1)NC(C)=O)C(=O)N[C@H](C)C(=O)N[C@@H](CO)C(=O)N(C)[C@@H](CC(C)C)C(N)=O
[Q] Which is greater in % remaining, the first item 1 or the second item 2 ? // caller expects the label of the chosen entry
[A] 1
